Entry source: patent US20260174778A1

Some compounds, each annotated with its measured TGI.
Test system: human breast cancer ZR-75-1 cell xenograft tumor
Assay: Anti-tumor effect in ER+KAT6high breast cancer cell xenograft tumor model (Test Example 6)
Type: in vivo, Balb/c nude mice
Settings: 0.3 mg/kg PO QD, day 34
The reply should be a number in %, with the unit left off.

Q: Under human breast cancer ZR-75-1 cell xenograft tumor: TGI value of `COc1ccc2c(c1S(=O)(=O)Nc1noc3cc(Cn4cccn4)c(F)c(OC)c13)OCCCN2C` ?
Result: 110.47

Q: Reported TGI for human breast cancer ZR-75-1 cell xenograft tumor, given `COc1ccc2c(c1S(=O)(=O)Nc1noc3cc(Cn4cccn4)c(F)c(OC)c13)OCCC2=O` ?
Result: 110.58

Q: Value wanted: TGI (human breast cancer ZR-75-1 cell xenograft tumor) of entry `COc1ccc2c(c1S(=O)(=O)Nc1noc3cc(Cn4cccn4)c(F)c(OC)c13)OCCCO2`
Result: 101.21

Attention now turns to another entry.
Q: Record lookup: for human breast cancer ZR-75-1 cell xenograft tumor, what TGI belongs to COc1ccccc1S(=O)(=O)Nc1noc2cc(Cn3cccn3)cc(OC)c12 [PF-8144, reference compound] ?
Result: 91.07

----------
Target: KAT6A (Homo sapiens)
Construct: purchased ACTIVE MOTIF 81223
Sequence (Q92794 whole entry): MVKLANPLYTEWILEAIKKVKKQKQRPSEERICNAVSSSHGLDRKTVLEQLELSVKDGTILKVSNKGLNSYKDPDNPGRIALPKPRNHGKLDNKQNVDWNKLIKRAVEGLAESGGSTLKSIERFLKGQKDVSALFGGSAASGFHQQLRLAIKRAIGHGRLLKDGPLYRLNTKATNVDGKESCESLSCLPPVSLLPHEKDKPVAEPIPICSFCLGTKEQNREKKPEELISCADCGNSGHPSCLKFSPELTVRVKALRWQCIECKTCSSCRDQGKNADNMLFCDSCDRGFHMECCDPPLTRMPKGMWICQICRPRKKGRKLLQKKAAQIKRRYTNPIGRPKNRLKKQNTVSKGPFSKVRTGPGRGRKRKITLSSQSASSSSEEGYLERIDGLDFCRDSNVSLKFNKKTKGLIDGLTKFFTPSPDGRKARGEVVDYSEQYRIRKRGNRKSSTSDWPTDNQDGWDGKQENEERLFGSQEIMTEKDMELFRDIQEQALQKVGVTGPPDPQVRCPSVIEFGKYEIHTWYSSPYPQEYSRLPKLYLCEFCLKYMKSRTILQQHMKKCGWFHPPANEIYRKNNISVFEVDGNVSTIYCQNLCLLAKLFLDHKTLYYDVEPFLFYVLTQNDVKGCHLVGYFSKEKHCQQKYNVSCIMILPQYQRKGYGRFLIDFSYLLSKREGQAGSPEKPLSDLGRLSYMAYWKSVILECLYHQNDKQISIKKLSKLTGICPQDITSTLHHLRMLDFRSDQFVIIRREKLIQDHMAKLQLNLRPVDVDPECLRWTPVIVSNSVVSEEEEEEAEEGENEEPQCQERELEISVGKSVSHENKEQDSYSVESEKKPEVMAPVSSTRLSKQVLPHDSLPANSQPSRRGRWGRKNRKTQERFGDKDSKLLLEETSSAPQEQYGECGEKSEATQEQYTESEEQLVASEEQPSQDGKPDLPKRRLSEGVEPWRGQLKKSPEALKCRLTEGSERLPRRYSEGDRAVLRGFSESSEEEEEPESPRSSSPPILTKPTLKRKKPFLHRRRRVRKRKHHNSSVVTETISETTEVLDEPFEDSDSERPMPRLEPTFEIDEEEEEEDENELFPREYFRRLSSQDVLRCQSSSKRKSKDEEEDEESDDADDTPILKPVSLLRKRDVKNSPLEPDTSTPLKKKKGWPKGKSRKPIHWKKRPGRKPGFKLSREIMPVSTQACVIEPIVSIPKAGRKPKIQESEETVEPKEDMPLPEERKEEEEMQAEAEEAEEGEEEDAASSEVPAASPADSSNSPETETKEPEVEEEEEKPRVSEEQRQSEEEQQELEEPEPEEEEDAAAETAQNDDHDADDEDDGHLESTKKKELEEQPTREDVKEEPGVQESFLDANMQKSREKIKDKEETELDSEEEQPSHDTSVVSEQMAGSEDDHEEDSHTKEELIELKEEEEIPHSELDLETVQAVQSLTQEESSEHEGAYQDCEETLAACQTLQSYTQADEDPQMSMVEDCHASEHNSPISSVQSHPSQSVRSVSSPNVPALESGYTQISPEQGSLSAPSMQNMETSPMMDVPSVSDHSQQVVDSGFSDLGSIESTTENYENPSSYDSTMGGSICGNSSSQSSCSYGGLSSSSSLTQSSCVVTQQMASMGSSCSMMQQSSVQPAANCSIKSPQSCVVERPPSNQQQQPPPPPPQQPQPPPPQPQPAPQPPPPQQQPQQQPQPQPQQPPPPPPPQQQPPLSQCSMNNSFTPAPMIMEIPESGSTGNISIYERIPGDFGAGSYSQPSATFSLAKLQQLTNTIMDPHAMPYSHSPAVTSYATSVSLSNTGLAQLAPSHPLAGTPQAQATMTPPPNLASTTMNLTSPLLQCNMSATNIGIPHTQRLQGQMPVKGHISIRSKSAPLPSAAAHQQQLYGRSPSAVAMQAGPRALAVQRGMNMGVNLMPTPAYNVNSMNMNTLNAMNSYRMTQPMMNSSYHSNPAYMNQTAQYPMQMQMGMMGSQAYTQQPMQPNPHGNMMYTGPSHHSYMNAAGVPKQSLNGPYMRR
Experiment: Inhibition of human KAT enzymes, radioisotope method: KAT6A
Type: biochemical
Conditions: KAT6A (488-778)
Experimental: Test Example 2: Selective Inhibitory Effects of Test Compounds on Human KAT6 Enzymes (Radioisotope Method) • 1. KAT6A (ACTIVE MOTIF, Cat. No. 81223) • 2. KAT5 (BPS, Cat. No. 79422) • 3. KAT7 (ACTIVE MOTIF, Cat. No. 31889) • 4. KAT6B (ACTIVE MOTIF, Cat. No. 81224) • 5. […] • 1. […] The plates were incubated at room temperature for at least 60 min and then • 8. read using MicroBeta2. Raw data were obtained in EXCEL, and the inhibition rates were calculated: […]
observable: pKi
# pKi is unitless: minus log10 of the molar concentration; print number only

Q: What does the record list as pKi for COc1ccc2c(c1S(=O)(=O)Nc1noc3cc(Cn4cccn4)c(F)c(OC)c13)OCCCO2 [Compound 114] ?
Result: 9.42

Q: Please report the recorded pKi for COc1ccccc1S(=O)(=O)Nc1noc2cc(Cn3cccn3)cc(OC)c12 [PF-8144, reference compound] .
Result: 9.24

New cases:
Q: So what's the measured pKi for this one? COc1ccc2c(c1S(=O)(=O)Nc1noc3cc(Cn4cccn4)c(F)c(OC)c13)OCCN2C [Compound 109]
Result: 9.33

Q: Can you look up the measured pKi of COc1ccc2c(c1S(=O)(=O)Nc1noc3cc(Cn4cccn4)c(F)c(OC)c13)OCCCN2C [Compound 115] for me?
Result: 9.20

----------
Entries and their measured bioavailability follow.
Assay: Pharmacokinetics in SD (Sprague Dawley) rats
Assay type: in vivo
Conditions: rat, plasma, po, female SD rats, p.o. 2 mg/kg, read-out: F (bioavailability)
Don't forget the unit after the number, please.

Below, 2 compounds whose answers are already recorded.
Q: I'd like to know its bioavailability. The compound in question is `COc1ccc2c(c1S(=O)(=O)Nc1noc3cc(Cn4cccn4)c(F)c(OC)c13)OCCO2`
Result: 94.7%

Q: I'd like to know its bioavailability. The compound in question is COc1ccccc1S(=O)(=O)Nc1noc2cc(Cn3cccn3)cc(OC)c12 [PF-8144, reference compound]
Result: 98%

Next:
Q: Given the entry `COc1ccc2c(c1S(=O)(=O)Nc1noc3cc(Cn4cccn4)c(F)c(OC)c13)OCCC2=O` , report its measured bioavailability.
Result: 55%

Q: Endpoint output: bioavailability of `COc1ccc2c(c1S(=O)(=O)Nc1noc3cc(Cn4cccn4)c(F)c(OC)c13)OCC=C2` . Value?
Result: 92.5%

Q: Suppose we examine the compound `COc1ccc2c(c1S(=O)(=O)Nc1noc3cc(Cn4cccn4)c(F)c(OC)c13)OCCCN2C` ; what bioavailability value has been reported?
Result: 105%

Q: Reported bioavailability for `COc1ccc2c(c1S(=O)(=O)Nc1noc3cc(Cn4cccn4)c(F)c(OC)c13)OCCC2(F)F` : what is it?
Result: 72.7%

Q: Which bioavailability is listed for `COc1ccc2c(c1S(=O)(=O)Nc1noc3cc(Cn4cccn4)c(F)c(OC)c13)OCCCO2` ?
Result: 144%

Q: // bioavailability lookup, key: `COc1ccc2c(c1S(=O)(=O)Nc1noc3cc(Cn4cccn4)c(F)c(OC)c13)OCCN2C`
Result: 96%
